System tested: ERα protein (HiBiT-tagged) in ESR1_HiBiT KI MCF7 cells (Homo sapiens, UniProt P03372)
Protocol notes: Nano Glo HiBiT Lytic Degradation Assay
Format: cell-based
Experimental conditions: 6 hours with compound, 14-point dose response 1:3, bell-shape curve fit, half-maximal effect of first Hill model, read-out: MCF7 ESR1 HiBiT - (DC50)
Experimental: Selected compounds of the present disclosure were tested in a Nano Glo HiBiT Lytic Degradation Assay to measure the level of ERα protein degradation in MCF7 cells. Cell culture: ESR1_HiBiT KI MCF7 cells were maintained in growth media without antibiotics. […] Cell seeding: Cells were counted using a Vi-Cell and seeded in a 384-well flat-bottom microplate (cell culture-treated) at 4000 cells/well in 25 μL of growth medium using a BioTek MultiFlo Multimode Dispenser. […]
Reported DC50 values for a set of molecules
State just the number; it will be interpreted in nM.

Please review the following examples before continuing.
Cc1cc(F)cc(F)c1[C@H]1CCc2cc(O)ccc2[C@H]1c1ccc(N2CCC(CN3CCN(c4ccc5c(c4)CN([C@H]4CCC(=O)NC4=O)C5=O)CC3)CC2)cc1 [II-74]; 0.13
O=C1CC[C@H](N2Cc3cc(N4CCN(CC5CCN(c6ccc([C@@H]7c8ccc(O)cc8CC[C@@H]7c7ccncc7)cc6)CC5)CC4)ccc3C2=O)C(=O)N1 [Compound I-132]; 0.0491

// next item, DC50 requested
Ask: So what's the measured DC50 for this one? O=C1CC[C@H](N2Cc3cc(N4CCN(CC5CCN(c6c(F)cc([C@@H]7c8ccc(O)cc8CC[C@@H]7c7ccccc7)cc6F)CC5)CC4)ccc3C2=O)C(=O)N1 [II-84]
Reply: 0.8

###

System tested: ERα protein (HiBiT-tagged) in ESR1_HiBiT KI MCF7 cells (Homo sapiens, UniProt P03372)
Sequence (P03372 1-595): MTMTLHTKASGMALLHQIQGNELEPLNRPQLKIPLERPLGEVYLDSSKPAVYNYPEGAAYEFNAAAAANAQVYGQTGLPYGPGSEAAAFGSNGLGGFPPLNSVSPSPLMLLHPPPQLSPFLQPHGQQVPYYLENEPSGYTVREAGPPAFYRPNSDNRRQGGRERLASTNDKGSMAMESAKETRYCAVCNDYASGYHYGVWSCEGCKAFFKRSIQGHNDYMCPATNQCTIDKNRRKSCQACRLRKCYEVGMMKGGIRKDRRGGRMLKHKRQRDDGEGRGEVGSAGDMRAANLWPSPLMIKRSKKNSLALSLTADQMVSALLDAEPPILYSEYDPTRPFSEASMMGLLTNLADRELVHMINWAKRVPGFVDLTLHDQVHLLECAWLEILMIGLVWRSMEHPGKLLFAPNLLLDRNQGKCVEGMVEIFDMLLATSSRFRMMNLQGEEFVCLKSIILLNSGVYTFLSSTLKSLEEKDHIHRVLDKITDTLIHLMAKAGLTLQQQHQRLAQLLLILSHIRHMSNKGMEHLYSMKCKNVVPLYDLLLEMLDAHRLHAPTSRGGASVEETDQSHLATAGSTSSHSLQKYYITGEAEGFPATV
Protocol notes: Nano Glo HiBiT Lytic Degradation Assay
Format: cell-based
Experimental conditions: 6 hours with compound, 14-point dose response 1:3, bell-shape curve fit, half-maximal effect of first Hill model, read-out: MCF7 ESR1 HiBiT - (DC50)
Assay metric: DC50 (nM)
Provide the reading as a plain figure in nM.

O=C1CC[C@H](N2Cc3cc(N4CCN(CC5CCN(c6c(F)cc([C@H]7c8ccc(O)cc8CC[C@H]7c7ccccc7)cc6F)CC5)CC4)ccc3C2=O)C(=O)N1 [II-83]; 424

API: the following record is the query input.
Ask: Can you look up the measured DC50 of C[C@]1(C2CCCCC2)OCc2cc(O)ccc2[C@H]1c1ccc(N2CCC(CN3CCN(c4ccc5c(c4)CN([C@H]4CCC(=O)NC4=O)C5=O)CC3)CC2)cc1 (single isomer, unassigned) [Compound I-418] for me?
Reply: 0.33
